target: CaLsb4; assay: SPOT peptide array binding signal intensity (averaged, normalized) (arbitrary units (background-subtracted, floor 0; scale differs between SH3 domains)); higher = stronger binding of the SH3 domain to the peptide
Measured Property: SPOT peptide array binding signal intensity
Please reply with the value in numeric form only.

- KRKRFNLLLPKPYLT: 43.5
- LKRITSPPLPPRADS: 6040
- PAPPPPPRASRPTPN: 939
- FLIKFTPKFPQSIDH: 299
- KKIRLIFTYPSTVGR: 354
- IKTRSVPKIPSIESV: 1880

For reference, reported SPOT peptide array binding signal intensity for LTRRFPFLFPFDTRM stands at 9.5

For reference, reported SPOT peptide array binding signal intensity for NMLKKKPLKKPLKRF stands at 506

For reference, reported SPOT peptide array binding signal intensity for KRRTSLFPWLHKPGI stands at 59.5

For reference, reported SPOT peptide array binding signal intensity for QFDLKMPSKPIHNLK stands at 142

For reference, reported SPOT peptide array binding signal intensity for PPPPPPPPPPPLPQS stands at 16

Cited source: the supplement of paper PMC4466140
